src = patent US20240392002A1

Target: T1, extracellular domain of human ROR2 (human, UniProt Q01974 34-403)
T1 construct: bought protein; biotinylated in the bivalent assay format; also called Acro Cat. No. RO2-H52E5
T1 sequence (Q01974 34-403 limits assumed): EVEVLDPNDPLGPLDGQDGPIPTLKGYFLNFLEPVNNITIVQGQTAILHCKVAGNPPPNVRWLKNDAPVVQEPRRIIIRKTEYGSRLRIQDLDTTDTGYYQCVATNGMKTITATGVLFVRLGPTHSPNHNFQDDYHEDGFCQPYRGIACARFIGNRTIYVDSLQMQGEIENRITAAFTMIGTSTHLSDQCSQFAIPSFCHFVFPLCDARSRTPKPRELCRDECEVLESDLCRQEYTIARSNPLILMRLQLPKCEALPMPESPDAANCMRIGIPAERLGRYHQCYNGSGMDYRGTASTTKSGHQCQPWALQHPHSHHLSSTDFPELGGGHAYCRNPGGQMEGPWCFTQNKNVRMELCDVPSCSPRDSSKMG
Experiment: BLI, IgG1 on biosensor, soluble ROR ectodomain
Text: To measure binding affinity in ROR binder discovery campaigns, the VL and VH domains identified in the phage screen described above were formatted into a bivalent monospecific native human full-length IgG1 architecture and immobilized to a biosensor on an Octet (Pall ForteBio) biolayer interferometer. […]
Observed property: binding result

As a guide, the following entries are already answered.
{"Binder": "I2C-7 IgG1 (antibody, V domains shown, human IgG1) VH: EVQLVESGGGLVQPGGSLRLSCAASGFTFDSYYIHWVRQAPGKGLEWVAWIDPYGLDTKYADSVKGRFTISADTSKNTAYLQMNSLRAEDTAVYYCAREPGDYGMDYWGQGTLVTVSS VL: DIQMTQSPSSLSASVGDRVTITCRASQSVSSAVAWYQQKPGKAPKLLIYSASSLYSGVPSRFSGSRSGTDFTLTISSLQPEDFATYYCQQAYGSLLTFGQGTKVEIK", "binding result": "binds"}
{"Binder": "I2A-25 IgG1 (antibody, V domains shown, human IgG1) VH: EVQLVESGGGLVQPGGSLRLSCAASGFTFYGYTIHWVRQAPGKGLEWVAAIYPYTDSTRYADSVKGRFTISADTSKNTAYLQMNSLRAEDTAVYYCARDYRRALDYWGQGTLVTVSS VL: DIQMTQSPSSLSASVGDRVTITCRASQSVSSAVAWYQQKPGKAPKLLIYSASSLYSGVPSRFSGSRSGTDFTLTISSLQPEDFATYYCQQYTDFPWTFGQGTKVEIK", "binding result": "no binding"}
{"Binder": "I2C-15 IgG1 (antibody, V domains shown, human IgG1) VH: EVQLVESGGGLVQPGGSLRLSCAASGFTFSSYFIHWVRQAPGKGLEWVALIYPDTDDTYYADSVKGRFTISADTSKNTAYLQMNSLRAEDTAVYYCARYGYLGVGAFDYWGQGTLVTVSS VL: DIQMTQSPSSLSASVGDRVTITCRASQSVSSAVAWYQQKPGKAPKLLIYSASSLYSGVPSRFSGSRSGTDFTLTISSLQPEDFATYYCQQLYWTPGTFGQGTKVEIK", "binding result": "binds"}
{"Binder": "I2C-10 IgG1 (antibody, V domains shown, human IgG1) VH: EVQLVESGGGLVQPGGSLRLSCAASGFTFSSYFIHWVRQAPGKGLEWVATIHSYFDGTSYADSVKGRFTISADTSKNTAYLQMNSLRAEDTAVYYCARTRPTGGAFDYWGQGTLVTVSS VL: DIQMTQSPSSLSASVGDRVTITCRASQSVSSAVAWYQQKPGKAPKLLIYSASSLYSGVPSRFSGSRSGTDFTLTISSLQPEDFATYYCQQAYWSPATFGQGTKVEIK", "binding result": "binds"}
{"Binder": "I2C-19 IgG1 (antibody, V domains shown, human IgG1) VH: EVQLVESGGGLVQPGGSLRLSCAASGFTFTSYDIHWVRQAPGKGLEWVAWIDPGLSYTSYADSVKGRFTISADTSKNTAYLQMNSLRAEDTAVYYCARASIGGGVPVMDYWGQGTLVTVSS VL: DIQMTQSPSSLSASVGDRVTITCRASQSVSSAVAWYQQKPGKAPKLLIYSASSLYSGVPSRFSGSRSGTDFTLTISSLQPEDFATYYCQQYVTGPYTFGQGTKVEIK", "binding result": "binds"}

Task: Consider the binder I2A-34 IgG1 (antibody, V domains shown, human IgG1) VH: EVQLVESGGGLVQPGGSLRLSCAASGFTFSWYVIHWVRQAPGKGLEWVAYIAPYTGSTYYADSVKGRFTISADTSKNTAYLQMNSLRAEDTAVYYCARAFFGIRLGLDYWGQGTLVTVSS VL: DIQMTQSPSSLSASVGDRVTITCRASQSVSSAVAWYQQKPGKAPKLLIYSASSLYSGVPSRFSGSRSGTDFTLTISSLQPEDFATYYCQQAISSPYTFGQGTKVEIK and give its measured binding result.
Result: binds

Task: Fill in: binding result of I2C-1 IgG1 (antibody, V domains shown, human IgG1) VH: EVQLVESGGGLVQPGGSLRLSCAASGFTFTSYGIHWVRQAPGKGLEWVAAIYPHSGFTSYADSVKGRFTISADTSKNTAYLQMNSLRAEDTAVYYCARTSYRGFDYWGQGTLVTVSS VL: DIQMTQSPSSLSASVGDRVTITCRASQSVSSAVAWYQQKPGKAPKLLIYSASSLYSGVPSRFSGSRSGTDFTLTISSLQPEDFATYYCQQYYWYPGTFGQGTKVEIK is ___
Result: binds

Task: Report binding result for I2C-21 IgG1 (antibody, V domains shown, human IgG1) VH: EVQLVESGGGLVQPGGSLRLSCAASGFTFSSYYIHWVRQAPGKGLEWVAWIDPYISYTYYADSVKGRFTISADTSKNTAYLQMNSLRAEDTAVYYCARDSELVSGYAMDYWGQGTLVTVSS VL: DIQMTQSPSSLSASVGDRVTITCRASQSVSSAVAWYQQKPGKAPKLLIYSASSLYSGVPSRFSGSRSGTDFTLTISSLQPEDFATYYCQQGDSSLVTFGQGTKVEIK please.
Result: binds

Task: Reported binding result, binder I2A-3 IgG1 (antibody, V domains shown, human IgG1) VH: EVQLVESGGGLVQPGGSLRLSCAASGFTFTSYEIHWVRQAPGKGLEWVAHIDPYGGYTQYADSVKGRFTISADTSKNTAYLQMNSLRAEDTAVYYCARRGVAVFDYWGQGTLVTVSS VL: DIQMTQSPSSLSASVGDRVTITCRASQSVSSAVAWYQQKPGKAPKLLIYSASSLYSGVPSRFSGSRSGTDFTLTISSLQPEDFATYYCQQWAYAPVTFGQGTKVEIK : ____
Result: no binding

Task: Record request: binding result value, item I2A-32 IgG1 (antibody, V domains shown, human IgG1) VH: EVQLVESGGGLVQPGGSLRLSCAASGFTFQSYVIHWVRQAPGKGLEWVAAIYPYSSSTIYADSVKGRFTISADTSKNTAYLQMNSLRAEDTAVYYCARSWSVYLGMDYWGQGTLVTVSS VL: DIQMTQSPSSLSASVGDRVTITCRASQSVSSAVAWYQQKPGKAPKLLIYSASSLYSGVPSRFSGSRSGTDFTLTISSLQPEDFATYYCQQSYDSPRTFGQGTKVEIK
Result: no binding
